This collection of values is drawn from ChEMBL document CHEMBL5252566.

# Tested on: HT-22
# assayNotes: Antioxidant activity in mouse HT-22 cells assessed as OH scavenging activity measured for 24 hrs by CCK-8 analysis
# Format: functional
Parameter Activity: see the listing below.
measuredMetric: Activity (%)

* O=C1C[C@@H](c2ccc(O)cc2)Oc2cc(O)cc(O)c21 | 80.65
* O=c1c(O)c(-c2ccc(O)cc2)oc2cc(O)cc(O)c12 | 69.4
* O=c1cc(-c2ccc(O)cc2)oc2cc(O)cc(O)c12 | 73.32
* O=c1c(-c2ccc(O)cc2)coc2cc(O)cc(O)c12 | 68.54

* * *

# assayNotes: Antioxidant activity assessed as oxygen scavenging activity measured every 30 sec for 5 min by UV-vis spectrophotometer analysis
# Type: functional
pIC50: −log10 of the molar value.
measuredMetric: pIC50

• O=C1C[C@@H](c2ccc(O)cc2)Oc2cc(O)cc(O)c21 [NARINGENIN] = 4.62
• O=c1c(-c2ccc(O)cc2)coc2cc(O)cc(O)c12 [GENISTEIN] = 4.05
• O=c1c(O)c(-c2ccc(O)cc2)oc2cc(O)cc(O)c12 [KAEMPFEROL] = 4.09
• O=c1cc(-c2ccc(O)cc2)oc2cc(O)cc(O)c12 [APIGENIN] = 4.16
• Cc1c(C)c2c(c(C)c1O)CCC(C)(C(=O)O)O2 (stereo not given) [TROLOX] = 3.02
